From: PubChem BioAssay AID1963982

- Tested on: 313798-341-R-J2-PDC spheroids, viability
- METHOD_DESCRIPTION: Anticancer human tumor 313798-341-R-J2-PDC patient-derived cervical squamous cell carcinoma cell line growth inhibition [PI3K]
- CONDITION_SET: second compound 0.1 µM; first compound 10 µM; hits give low values; spheroids with HUVEC and MSC
REPORTED_PROPERTY: viability, T/C (%)

COMPOUND | REPORTED_PROPERTY | QUANTITATIVE_READOUT
CCCS(=O)(=O)Nc1ccc(F)c(C(=O)c2c[nH]c3ncc(-c4ccc(Cl)cc4)cc23)c1F + CC(Nc1ncnc2nc[nH]c12)c1cc2cccc(Cl)c2c(=O)n1-c1ccccc1 | viability, T/C | 28.1
Cn1nccc1Nc1nccc(-c2ccn(C(CO)c3ccc(Cl)c(F)c3)c(=O)c2)n1 (stereo not given) + Cc1nc(NC(=O)N2CCCC2C(N)=O)sc1-c1ccnc(C(C)(C)C(F)(F)F)c1 | viability, T/C | 106
Cn1ncc(Cl)c1-c1cc(C(=O)NC(CN)Cc2cccc(F)c2)sc1Cl (stereo not given) + COc1c(OCCCN2CCOCC2)ccc2c3n(c(=NC(=O)c4cnc(N)nc4)nc12)CCN3 | viability, T/C | 15.4
C[C@@H](NC(=O)c1ncnc(N)c1Cl)c1ncc(C(=O)Nc2cc(C(F)(F)F)c(Cl)cn2)s1 + CC(Nc1ncnc2nc[nH]c12)c1cc2cccc(Cl)c2c(=O)n1-c1ccccc1 | viability, T/C | 117
C[C@@H](NC(=O)c1ncnc(N)c1Cl)c1ncc(C(=O)Nc2cc(C(F)(F)F)c(Cl)cn2)s1 + COc1c(OCCCN2CCOCC2)ccc2c3n(c(=NC(=O)c4cnc(N)nc4)nc12)CCN3 | viability, T/C | 46.4

====

Each entry below carries its reported viability, T/C.
- System: 313798-341-R-J2-PDC spheroids, viability
- METHOD_DESCRIPTION: Anticancer human tumor 313798-341-R-J2-PDC cell line growth inhibition [PI3K];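 further: spheroids exposed to compounds for seven days; 100% = DMSO vehicle control viability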
- CONDITION_SET: second compound 1 µM; first compound 10 µM; hits give low values; spheroids with HUVEC and MSC

COMPOUND | SUBJECT_OF_TEST | viability, T/C [%]
CCCS(=O)(=O)Nc1ccc(F)c(C(=O)c2c[nH]c3ncc(-c4ccc(Cl)cc4)cc23)c1F + CC(Nc1ccc2c(c1)OCCn1cc(N3C(=O)OCC3C(F)F)nc1-2)C(N)=O | 313798-341-R-J2-PDC spheroids, viability | 8.44
CNC(=O)c1ccc(N2C(=S)N(c3ccc(C#N)c(C(F)(F)F)c3)C(=O)C2(C)C)cc1F + CC(Nc1ncnc2nc[nH]c12)c1cc2cccc(Cl)c2c(=O)n1-c1ccccc1 | 313798-341-R-J2-PDC spheroids, viability | 93.2
Cn1ncc(Cl)c1-c1cc(C(=O)NC(CN)Cc2cccc(F)c2)sc1Cl (stereo not drawn) + CC(Nc1ncnc2nc[nH]c12)c1cc2cccc(Cl)c2c(=O)n1-c1ccccc1 | 313798-341-R-J2-PDC spheroids, viability | 29

====

- Test system: 313798-341-R-J2-PDC spheroids, viability
- METHOD_DESCRIPTION: Anticancer human tumor 313798-341-R-J2-PDC cell line growth inhibition [PI3K];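 further: spheroids exposed to compounds for seven days; 100% = DMSO vehicle control viability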
- CONDITION_SET: second compound 3.16 µM; first compound 0.01 µM; hits give low values; spheroids with HUVEC and MSC
REPORTED_PROPERTY: viability, T/C (%)

MOLECULE | REPORTED_PROPERTY | QUANTITATIVE_READOUT
CCN1CCN(Cc2ccc(Nc3ncc(F)c(-c4cc(F)c5nc(C)n(C(C)C)c5c4)n3)nc2)CC1 + CC(Nc1ncnc2nc[nH]c12)c1cc2cccc(Cl)c2c(=O)n1-c1ccccc1 | viability, T/C | 94.6
CC(C)n1nc(-c2ccc3oc(N)nc3c2)c2c(N)ncnc21 + CC(Nc1ncnc2nc[nH]c12)c1cc2cccc(Cl)c2c(=O)n1-c1ccccc1 | viability, T/C | 82.2
CC(C)n1nc(-c2ccc3oc(N)nc3c2)c2c(N)ncnc21 + Cc1nc(NC(=O)N2CCCC2C(N)=O)sc1-c1ccnc(C(C)(C)C(F)(F)F)c1 | viability, T/C | 43.5
